System: MDA-MB-231 breast
Test: NCI-60 one-dose screen, 48 h (100 = growth as untreated, 0 = no growth, -100 = all killed)
Settings: 10 µM unless noted
About 83,000 compounds went through this panel and 20% of them were active in at least one assay; those are over-represented in the sample as a whole.
MEASURED_QUANTITY: growth (%)
Entry rule: numbers only, all in %.

Solved cases (4 shown):
[[record]]
compound = "COc1cc(-c2n/c(=C\\c3c(O)[nH]c4ccc(Cl)cc34)cc3c2=Nc2ccccc2-3)ccc1F"
measured_quantity = "growth"
unit_string = "%"
assay_value = -7.94

[[record]]
compound = "O=S(=O)(NCCNc1nccc(-c2c(-c3cccc(F)c3)nc3sccn23)n1)c1ccccc1"
measured_quantity = "growth"
unit_string = "%"
assay_value = 66

[[record]]
compound = "N#C/C(=C\\c1cccc(C#N)c1)c1ccccc1"
measured_quantity = "growth"
unit_string = "%"
assay_value = 102

[[record]]
compound = "COc1ccc(CCn2cncc2-c2c[nH]c3ccccc23)cc1"
measured_quantity = "growth"
unit_string = "%"
assay_value = 74.5


Briefly, growth measured for Nc1n[nH]c2cccc(C#Cc3cccc(C(=O)Nc4cccc(C(F)(F)F)c4)c3)c12 : 53.6

Data point: Cn1cc(-c2nc(-c3c[nH]c4c(Cl)nccc34)cs2)c2cc(F)ccc21 ; growth = 100

Summary for this compound, CC(C)N1C(=O)/C(=C2\SC(=S)N(C(C)C)C2=O)SC1=S : growth is 81
